Just for reference, patent US10093660B2 is where these values come from.

# system-tested: UniProt Q9HBH9
# Sequence (Q9HBH9 whole entry): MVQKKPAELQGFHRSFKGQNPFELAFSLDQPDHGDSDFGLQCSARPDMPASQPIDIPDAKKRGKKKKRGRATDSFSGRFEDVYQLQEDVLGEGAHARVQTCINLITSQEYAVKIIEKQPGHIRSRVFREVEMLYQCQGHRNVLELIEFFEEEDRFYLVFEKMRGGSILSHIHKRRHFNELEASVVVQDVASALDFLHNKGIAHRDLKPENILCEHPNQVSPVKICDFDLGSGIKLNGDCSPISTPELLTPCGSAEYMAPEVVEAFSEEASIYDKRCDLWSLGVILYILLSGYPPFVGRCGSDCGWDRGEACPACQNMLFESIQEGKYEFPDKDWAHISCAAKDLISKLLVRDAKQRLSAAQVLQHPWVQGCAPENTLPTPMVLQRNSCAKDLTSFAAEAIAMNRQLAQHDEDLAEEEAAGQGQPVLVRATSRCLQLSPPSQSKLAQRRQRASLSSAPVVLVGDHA
# protocol-text: MNK2a in vitro kinase assay (Assay 2), ADP-Glo
# Type: biochemical
# reported-conditions: assay 2; read-out: MNK2 IC50
Below is a list of entries, each paired with its recorded IC50 value.
Give the value, in units of nM, as a plain number.

Recorded IC50 for Cc1cc(N=S(C)(=O)c2cccnc2)cc2ncnc(Nc3ccc(F)cc3O[C@@H]3COC[C@@H]3O)c12 (mixture of isomers) [Example 2.70] on UniProt Q9HBH9 was 10

Recorded IC50 for CO[C@H]1COC[C@H]1Oc1ncccc1Nc1ncnc2cc(N=S3(=O)CCCC3)cc(C)c12 (racemic) [Example 2.2] on UniProt Q9HBH9 was 6

Recorded IC50 for Cc1cc(N=S(C)(C)=O)cc2ncnc(Nc3cccnc3O[C@@H]3COC[C@H]3O)c12 [Example 2.51] on UniProt Q9HBH9 was 11

Recorded IC50 for COc1cc(N=S2(=O)CCC(C)C2)cc2ncnc(Nc3ccc(F)cc3O[C@H]3COC[C@H]3O)c12 (mixture of isomers) [Example 9.23] on UniProt Q9HBH9 was 8

Recorded IC50 for CS(C)(=O)=Nc1cc(F)c2c(Nc3ccc(Cl)nc3O[C@H]3COC[C@@H]3O)ncnc2c1 [Example 1.21] on UniProt Q9HBH9 was 7

Recorded IC50 for COc1cc(N=S2(=O)CCCC2)cc2ncnc(Nc3ccc(F)cc3O[C@H]3COC[C@H]3O)c12 (racemic) [Example 9.13] on UniProt Q9HBH9 was 6

Recorded IC50 for Cc1cc(N=S(C)(=O)c2cccnc2)cc2ncnc(Nc3ccc(F)cc3O[C@H]3COC[C@@H]3O)c12 (stereo partly shown) [Example 2.81] on UniProt Q9HBH9 was 14

Recorded IC50 for Cc1cc(N=S(C)(C)=O)cc2ncnc(Nc3ccc(F)cc3O[C@@H]3CN(S(C)(=O)=O)C[C@H]3O)c12 [Example 2.11] on UniProt Q9HBH9 was 14

Recorded IC50 for CC[S@@](C)(=O)=Nc1cc(C)c2c(Nc3ccc(F)cc3O[C@H]3COC[C@@H]3O)ncnc2c1 (single isomer, unassigned) [Example 14.12] on UniProt Q9HBH9 was 15

Recorded IC50 for CC1CCS(=O)(=Nc2cc(F)c3c(Nc4ccc(F)cc4O[C@@H]4COC[C@@H]4O)ncnc3c2)C1 (mixture of isomers) [Example 2.96] on UniProt Q9HBH9 was 9

----------
# system-tested: MNK1a (Homo sapiens (Human), UniProt Q9BUB5)
# Sequence (Q9BUB5 other isoform, or with tags, fused parts or gaps): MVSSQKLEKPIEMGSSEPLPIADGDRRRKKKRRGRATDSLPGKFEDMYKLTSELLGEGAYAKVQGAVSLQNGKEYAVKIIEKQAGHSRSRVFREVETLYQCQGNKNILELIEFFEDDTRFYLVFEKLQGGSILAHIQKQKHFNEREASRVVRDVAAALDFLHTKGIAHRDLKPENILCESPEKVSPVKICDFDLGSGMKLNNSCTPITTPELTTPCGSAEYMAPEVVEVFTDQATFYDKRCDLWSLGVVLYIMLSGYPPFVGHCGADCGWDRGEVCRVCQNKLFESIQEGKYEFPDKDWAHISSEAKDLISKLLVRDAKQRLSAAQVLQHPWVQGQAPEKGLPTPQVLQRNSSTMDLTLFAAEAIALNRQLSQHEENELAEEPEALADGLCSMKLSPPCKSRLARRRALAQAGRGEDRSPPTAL
# protocol-text: MNK1 in vitro kinase assay (Assay 3), Z'-LYTE
# Format: biochemical
# reported-conditions: compound concentration of 1 μM, read-out: MNK1 % INH
property: inhibition at 1 µM (%)
Give the value, in units of %, as a plain number.

Use these answered entries as a reference point.
molecule	system-tested	inhibition at 1 µM, %
Cc1cc(N=S2(=O)CCCC2)cc2ncnc(Nc3cccnc3O[C@@H]3COC[C@@H]3O)c12 (single isomer, unassigned) [Example 14.3]	MNK1a (Homo sapiens (Human), UniProt Q9BUB5)	100
Cc1cc(N=S(C)(=O)C(C)(C)C)cc2ncnc(Nc3ccc(F)cc3O[C@@H]3COC[C@@H]3O)c12 (mixture of isomers)	MNK1a (Homo sapiens (Human), UniProt Q9BUB5)	94
Cc1cc(N=S2(=O)CCCC2)cc2ncnc(Nc3ccc(F)cc3O[C@@H]3COC[C@@H]3O)c12 (single isomer, unassigned)	MNK1a (Homo sapiens (Human), UniProt Q9BUB5)	99
Cc1cc(N=S(C)(C)=O)cc2ncnc(Nc3ccc(F)cc3O[C@H]3COC[C@@H]3O)c12	MNK1a (Homo sapiens (Human), UniProt Q9BUB5)	97

Memo: Cc1cc(N=S2(=O)CCCC2)cc2ncnc(Nc3cccnc3O[C@@H]3CN(S(C)(=O)=O)C[C@H]3O)c12 , reported inhibition at 1 µM: 86

Memo: COc1cc(N=S2(=O)CCCC2)cc2ncnc(Nc3cccnc3O[C@H]3COC[C@H]3O)c12 (racemic) , reported inhibition at 1 µM: 97

Memo: COc1cc(N=S(C)(C)=O)cc2ncnc(Nc3ccc(F)cc3O[C@H]3COC[C@H]3O)c12 (racemic) , reported inhibition at 1 µM: 90

Memo: O=S1(=Nc2cc(Cl)c3c(Nc4ccc(F)cc4O[C@H]4COC[C@H]4O)ncnc3c2)CCCC1 (single isomer, unassigned) [Example 14.10] , reported inhibition at 1 µM: 101

Memo: COc1cc(N=S(C)(=O)c2cccnc2)cc2ncnc(Nc3ccc(F)cc3O[C@H]3COC[C@H]3O)c12 (mixture of isomers) , reported inhibition at 1 µM: 86

Memo: COc1cc(N=S2(=O)CCC2)cc2ncnc(Nc3ccc(F)cc3O[C@H]3COC[C@H]3O)c12 (racemic) , reported inhibition at 1 µM: 98

Memo: CO[C@@H]1CNC[C@H]1Oc1ncccc1Nc1ncnc2cc(N=S3(=O)CCCC3)cc(C)c12 , reported inhibition at 1 µM: 93

Memo: CS(C)(=O)=Nc1cc(F)c2c(Nc3ccc(F)cc3O[C@H]3COC[C@H]3O)ncnc2c1 (racemic) , reported inhibition at 1 µM: 97

Memo: Cc1cc(N=S(C)(C)=O)cc2ncnc(Nc3ccc(F)cc3O[C@H]3COC[C@H]3OCC3CC3)c12 (racemic) , reported inhibition at 1 µM: 94

Memo: CCOc1cc(N=S(C)(C)=O)cc2ncnc(Nc3ccc(F)cc3O[C@H]3COC[C@@H]3O)c12 , reported inhibition at 1 µM: 94

Memo: Cc1cc(N=S2(=O)CCC(C)C2)cc2ncnc(Nc3ccc(F)cc3O[C@@H]3COC[C@@H]3O)c12 (mixture of isomers) , reported inhibition at 1 µM: 97

Memo: CO[C@@H]1COC[C@@H]1Oc1cc(F)ccc1Nc1ncnc2cc(N=S(C)(C)=O)cc(F)c12 (racemic) , reported inhibition at 1 µM: 82

Memo: Cc1cc(N=S2(=O)CCCC2)cc2ncnc(Nc3cccnc3O[C@H]3COC[C@@H]3O)c12 , reported inhibition at 1 µM: 99

Memo: Cc1cc(N=S(C)(C)=O)cc2ncnc(Nc3ccc(F)cc3O[C@@H]3CNC[C@H]3O)c12 , reported inhibition at 1 µM: 82

Memo: CO[C@@H]1CNC[C@H]1Oc1ncccc1Nc1ncnc2cc(N=S(C)(C)=O)cc(C)c12 , reported inhibition at 1 µM: 63
